# SYSTEM_UNDER_TEST: SpBbc1
# PROTOCOL: SPOT peptide array binding signal intensity (averaged, normalized) (arbitrary units (background-subtracted, floor 0; scale differs between SH3 domains)); higher = stronger binding of the SH3 domain to the peptide
Rule: Criterion met for SPOT peptide array binding signal intensity not less than 4, Criterion not met for anything less.

1. LYKRKPILLPDPKPL ... Criterion not met
2. PKMLPIPSKPTLFDL ... Criterion not met
3. RRTRLRPPTPLSQLL ... Criterion met
4. PLRRTVMSLPGNHDI ... Criterion not met
5. EEEEEHPPLPARRKS ... Criterion not met
6. WRPRIVPILPYITRL ... Criterion met
7. NENKKLPPAPTVFGL ... Criterion met
8. NMLKKKPLKKPLKRF ... Criterion met

meta.source: the supplement of paper PMC4466140
